test system: NDR2; details: concentration: 1 μM, replicates: in singlicate; n = 1;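 further: KINOMEscan kinase panel screen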
measured attribute: %Inh (%)

* COc1cccc(NC(=O)NCCNc2ccnc(Nc3ccc(F)cc3)n2)c1 | 0
* CC(C)c1nc(-c2ccc(F)c(NS(=O)(=O)c3c(F)cccc3F)c2)c(-c2ccnc(Nc3ccc(N4CCOCC4)nc3)n2)s1 | 0
* CC(C)(C)c1ccc(C(=O)Nc2cn3cc(-n4ccnc4)ccc3n2)cc1 | 7
* CN(C)CCOc1ccc(-c2cc(-c3ccc(Cl)c(O)c3)c(-c3ccncc3)[nH]2)cc1.Cl.Cl | 42
* Cc1ccc(O)cc1Nc1ccnc2cc(-c3ccc(CN4CCCCC4)o3)ccc12 | 4
* Cc1nn2c(=O)cc(N3CCO[C@H](C)C3)nc2n1Cc1cccc(Cl)c1Cl | 0

---

tested on: TAOK3; settings: concentration: 1 μM, replicates: in singlicate; n = 1
compounds and their reported %Inh
measured attribute: %Inh (%)

• Cc1ccc(NC(=O)c2ccc(Cl)c(Cl)c2)cc1-c1ccc(C(=O)Nc2ccncc2)cc1 = 0
• O=C(Nc1n[nH]c2nc(-c3ccccc3O)ccc12)C1CC1 = 0
• CN(c1ccc(F)c(NC(=O)c2cccc(OC(C)(C)C#N)c2Cl)c1)c1ccc2nc(NC(=O)C3CC3)sc2n1 = 0
• O=C(O)C(F)(F)F.O=c1[nH]ccc2nc(N[C@@H]3CCNC3)nc(Nc3ccc4c(c3)S(=O)(=O)CC4)c12 = 94.9

---

tested on: PRKCD; details: concentration: 1 μM, replicates: in singlicate; n = 1
compounds and their reported %Inh
measured attribute: %Inh (%)

• COc1cc(Nc2nccc(N3CCC(NS(=O)(=O)c4ccc(NC(C)=O)cc4)CC3)n2)cc(OC)c1OC = 0
• NCCC(NC(=O)c1cc(Br)c(-c2ccnc3[nH]ccc23)s1)c1ccccc1.O=C(O)C(F)(F)F.O=C(O)C(F)(F)F (stereo not shown) = 99.6
• CN(C)CCOc1ccc(-c2cc(-c3ccc(Cl)c(O)c3)c(-c3ccncc3)[nH]2)cc1.Cl.Cl = 0
• CSc1ccc(NC2=C(c3ccc(Cl)cc3)C(=O)NC2=O)cc1 = 4

---

system: ACVR1B; conditions: concentration: 1 μM, replicates: in singlicate; n = 1
molecules and their reported %Inh
measured attribute: %Inh (%)

- Cc1ccc(NC(=O)c2ccc(Cl)c(Cl)c2)cc1-c1ccc(C(=O)Nc2ccncc2)cc1: 0
- CN1CCN(Cc2ccc(NC(=O)Nc3ccc(N(C)c4ccnc(Nc5ccc(CS(C)(=O)=O)cc5)n4)cc3)cc2)CC1.Cl: 0
- CN(C)CCNS(=O)(=O)c1ccc(-c2ccnc3[nH]ccc23)cc1: 6
- O=C(Nc1n[nH]c2nc(-c3ccccc3)ccc12)C1CC1: 22
- Cc1cccc(Nc2nc(NCCN)ncc2C(N)=O)c1: 0
- Nc1ncc(-c2cn[nH]c2)c2scc(-c3ccc4c(c3)CCN4C(=O)Cc3ccccc3)c12: 0
- CC(=O)Nc1cn2nc(Oc3cccc(NC(=O)c4cccc(C(F)(F)F)c4)c3)ccc2n1: 0
- Cl.N#CCc1ccc(Nc2nccc(Nc3ccc(Oc4ccccc4)cc3)n2)cc1: 0
- Cc1ccc(O)cc1Nc1ccnc2cc(-c3ccc(CN4CCCCC4)o3)ccc12: 79
- NCCC(NC(=O)c1cc(Br)c(-c2ccnc3[nH]ccc23)s1)c1ccccc1.O=C(O)C(F)(F)F.O=C(O)C(F)(F)F (stereo not drawn): 43
- Nc1ncnc2scc(-c3ccc(NC(=O)Cc4cc(F)ccc4F)cc3)c12.O=C(O)C(F)(F)F: 14
- O=C(O)C(F)(F)F.O=c1[nH]ccc2nc(N[C@@H]3CCNC3)nc(Nc3ccc4c(c3)S(=O)(=O)CC4)c12: 0
- Cc1ccc(O)cc1Nc1ccnc2ccc(C(C)(C)C)cc12: 24
- Cc1cc(-c2ccnc(Nc3cccc(C#N)c3)n2)cc(C)c1O: 0
- COc1cccc(-c2nc(-c3ccccc3)[nH]c2-c2ccncc2)c1: 0
- CCOc1nccc(-c2c(-c3ccc(F)cc3)ncn2C2CCNCC2)n1: 100
- Cc1ccc(NC(=O)c2ccnc(N3CCCCC3)c2)cc1-c1ccc(C(=O)NCC2CC2)cc1: 0
- Cc1ccc(NC(=O)c2cccc(N3CCCCC3)c2)cc1-c1ccc(C(=O)NCC2CC2)cc1: 0
- O=C(O)C(F)(F)F.O=c1[nH]ccc2nc(N[C@@H]3CCNC3)nc(Nc3cc(Cl)cc(Cl)c3)c12: 0
- COc1cccc2c(-c3ccncc3)c(-c3ccc(F)cc3)nn12: 76
- CCNc1nccc(-c2c(-c3ccc(F)cc3)ncn2C2CCN(C)CC2)n1: 0
- Cc1ccc(Nc2ccnc(Nc3ccc(C)c(F)c3)n2)cc1O.Cl: 0
- Nc1cccc(-c2ccc3c(N)n[nH]c3c2)c1: 0
- CN(c1ccc2c(c1)nc(NCc1ccccc1)n2C)c1ccnc(Nc2ccc(CS(C)(=O)=O)cc2)n1.Cl: 0
- CC(C)c1nc(-c2ccc(F)c(NS(=O)(=O)c3c(F)cccc3F)c2)c(-c2ccnc(Nc3ccc(N4CCOCC4)nc3)n2)s1: 91.9
- Cl.O=C(Nc1ccc(Oc2ccc3[nH]c(NC(=O)c4ccco4)nc3c2)cc1)Nc1cc(C(F)(F)F)ccc1F: 0
- CN(C)c1ncnc2nc[nH]c12: 0
- Cl.Cl.NCC(NC(=O)c1cc(-c2cccnc2)c(-c2ccnc3[nH]ccc23)s1)c1ccccc1 (stereo not drawn): 0
- COC(=O)Nc1nc2cc(Oc3ccc(NC(=O)Nc4cccc(SC)c4)cc3)ccc2[nH]1.Cl: 0
- Cc1cccc(Nc2nc(N[C@H]3CCCC[C@H]3N)ncc2C(N)=O)c1.Cl: 0
- CN(c1ccc(F)c(NC(=O)c2cccc(OC(C)(C)C#N)c2Cl)c1)c1ccc2nc(NC(=O)C3CC3)sc2n1: 0
- COc1cc(Nc2nccc(N3CCC(NC(=O)Nc4ccc5c(c4)OCO5)C3)n2)cc(OC)c1OC (stereo not drawn): 0
- CC(C)c1nc(-c2cccc(NS(=O)(=O)c3c(F)cccc3F)c2)c(-c2ccnc(Nc3ccc(N4CCOCC4)nc3)n2)s1.Cl: 89

---

compounds and their reported %Inh
system: PKAC-alpha; construct: gene PRKACA; details: concentration: 1 μM, replicates: in singlicate; n = 1
measured attribute: %Inh (%)

* CCNc1nccc(-c2c(-c3ccc(F)cc3)ncn2C2CCN(C)CC2)n1 | 20
* Cc1ccc(O)cc1Nc1ccnc2ccc(C(C)(C)C)cc12 [GW856805] | 43
* CN(c1ccc2c(c1)nc(NCc1ccccc1)n2C)c1ccnc(Nc2ccc(CS(C)(=O)=O)cc2)n1.Cl [GW811603] | 0
* CNc1nccc(-c2ccc3c(N)n[nH]c3c2)n1 [GSK2206003] | 23
* CN(c1ccc(NC(=O)N2CCN(CCCN3CCOCC3)CC2)cc1)c1ccnc(Nc2ccc(CS(C)(=O)=O)cc2)n1.Cl [GW830899] | 0

---

system: CSNK1G1; details: concentration: 1 μM, replicates: in singlicate; n = 1
measured attribute: %Inh (%)

• O=C(O)C(F)(F)F.O=c1[nH]ccc2nc(N[C@@H]3CCNC3)nc(Nc3ccc4c(c3)S(=O)(=O)CC4)c12 = 85
• Cc1ccc(NC(=O)c2cccc(N3CCCCC3)c2)cc1-c1ccc(C(=O)NCC2CC2)cc1 = 8
• O=C(Nc1n[nH]c2nc(-c3ccccc3O)ccc12)C1CC1 = 0
• COC(=O)Nc1nc2ccc(Oc3ccc(NC(=O)Nc4cc(C(F)(F)F)ccc4F)cc3)cc2[nH]1.Cl = 0
• CCOc1nccc(-c2c(-c3ccc(F)cc3)ncn2C2CCNCC2)n1 = 0
• O=C(Nc1n[nH]c2cc(-c3cccs3)ccc12)C1CC1 = 0
• CSc1ccc(NC2=C(c3ccc(Cl)cc3)C(=O)NC2=O)cc1 = 0
• CN(c1ccc(NC(=O)N2CCN(CCCN3CCOCC3)CC2)cc1)c1ccnc(Nc2ccc(CS(C)(=O)=O)cc2)n1.Cl = 19

---

test system: SGK; details: concentration: 1 μM, replicates: in singlicate; n = 1
Please respond with condition met when measured %Inh is strictly beneath 9%, and with condition not met in all other cases.

* COc1cc(Nc2nccc(N3CCC(NC(=O)Nc4ccc5c(c4)OCO5)C3)n2)cc(OC)c1OC (stereo not shown) [GSK1379766] | condition met
* COc1cccc(CC(=O)N2CCc3cc(-c4cn(C)c5ncnc(N)c45)ccc32)c1 [GSK2608899] | condition met
* CN(c1ccc2c(c1)nc(NCc1ccccc1)n2C)c1ccnc(Nc2ccc(CS(C)(=O)=O)cc2)n1.Cl [GW811603] | condition not met
* O=C(Nc1n[nH]c2nc(-c3cccc(O)c3)ccc12)C1CC1 [SB-711805] | condition not met
* Fc1cc(Cl)ccc1Nc1ccnc2cc(-c3ccc(CN4CCOCC4)o3)ccc12 [GW560109] | condition met
* CN(C)c1ncnc2nc[nH]c12 [SKF-31736] | condition not met
* CN(c1ccc(NC(=O)N2CCN(CCCN3CCOCC3)CC2)cc1)c1ccnc(Nc2ccc(CS(C)(=O)=O)cc2)n1.Cl [GW830899] | condition met
* CCOc1nccc(-c2c(-c3ccc(F)cc3)ncn2C2CCNCC2)n1 [SB-249175] | condition not met
* CC(C)(C)c1ccc(C(=O)Nc2cn3cc(-n4ccnc4)ccc3n2)cc1 | condition met
* Cc1ccc(NC(=O)c2ccc(Cl)c(Cl)c2)cc1-c1ccc(C(=O)Nc2ccncc2)cc1 [GSK1398460] | condition met
* COc1ccc(NC(=O)c2ccoc2)cc1-c1ccc(C(=O)NCC2CC2)cc1 [GW810437] | condition not met
* O=C(Nc1n[nH]c2nc(-c3ccccc3O)ccc12)C1CC1 [SB-711880] | condition not met
* N#CC1(c2cccc(C(=O)Nc3cccc(Oc4ccc5nc(NC(=O)C6CC6)sc5n4)c3)c2)CC1 | condition met
* Nc1ncc(-c2cn[nH]c2)c2scc(-c3ccc4c(c3)CCN4C(=O)Cc3ccccc3)c12 [GSK2593067] | condition met
* CCNC(=O)/C=C/c1n[nH]c2cc(Sc3ccccc3C(=O)NC)ccc12 | condition met

The measurements presented in this section are drawn from paper PMC5540273.
